Biological target: Stromelysin-2 (Homo sapiens, UniProt P09238)
Sequence (P09238 99-476 limits assumed): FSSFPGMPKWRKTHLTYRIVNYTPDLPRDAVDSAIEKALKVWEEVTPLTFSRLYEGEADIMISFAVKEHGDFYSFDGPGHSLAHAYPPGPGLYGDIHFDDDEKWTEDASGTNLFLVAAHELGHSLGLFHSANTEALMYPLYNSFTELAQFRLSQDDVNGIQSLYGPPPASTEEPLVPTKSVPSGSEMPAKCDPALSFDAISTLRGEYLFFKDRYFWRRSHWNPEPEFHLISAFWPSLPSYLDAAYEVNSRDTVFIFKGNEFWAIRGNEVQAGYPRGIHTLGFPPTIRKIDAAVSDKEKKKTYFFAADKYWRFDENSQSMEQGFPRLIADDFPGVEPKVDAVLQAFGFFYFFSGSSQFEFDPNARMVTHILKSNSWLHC
Assay: Inhibition of MMP10 (unknown origin) assessed as residual activity at 10 uM using (5-FAM/QX) FRET peptide as substrate by fluorescence assay relative to control
observed-property: Activity (%)

[[record]]
structure_as_smiles = "COc1cc(CNC(=O)C#Cc2cn(Cc3ccc(C(=O)N[C@H](CO)C(=O)O)cc3)c(=O)[nH]c2=O)ccc1F"
measured_on = "Stromelysin-2 (Homo sapiens, UniProt P09238)"
unit_symbol = "%"
measured_value = 77


[1] COc1cc(CNC(=O)C#Cc2cn(Cc3ccc(C(=O)NCC(=O)O)cc3)c(=O)[nH]c2=O)ccc1F
[2] COc1cc(CNC(=O)C#Cc2cn(Cc3ccc(-c4cnco4)cc3)c(=O)[nH]c2=O)ccc1F
[3] COc1cc(CNC(=O)C#Cc2cn(Cc3ccc(C(=O)NC4CC4)cc3)c(=O)[nH]c2=O)ccc1F
Problem: Task field, ranking: reported Activity, descending order. Please list the labels according to the requested order.
Solution: 1, 3, 2
(1: 68.6%, 3: 30.8%, 2: 2.8%)

* * *

Molecular target: Collagenase 3 (Homo sapiens)
Assay: Inhibition of C-terminal tagged human recombinant MMP13 catalytic domain expressed in Escherichia coli using (5-FAM/QX) FRET peptide as substrate by fluorescence assay
Conditions: read-out: pIC50 (converted)
Recorded measurements of IC50, one per entry

Consider the reported IC50 for these compounds:
[[record]]
compound = "CNC(=O)c1ccc(Cn2cc(C#CC(=O)NCc3ccc(F)c(OC)c3)c(=O)[nH]c2=O)cc1"
measured_value = "67.6 to 112 nM"

[[record]]
compound = "COc1cc(CNC(=O)C#Cc2cn(Cc3ccc(-c4cnco4)cc3)c(=O)[nH]c2=O)ccc1F"
measured_value = "3.63 to 5.5 nM"


For this compound ( COc1cccc(CNC(=O)c2nc3scc(COCc4ccc(C(=O)O)cc4)c3c(=O)[nH]2)c1 [T-26c] ), measured IC50 is 0.138 to 0.275 nM

The compound listed as "COc1cc(CNC(=O)C#Cc2cn(Cc3ccc(C(N)=O)cc3)c(=O)[nH]c2=O)ccc1F" shows IC50 equal to 77.6 to 162 nM

// "COc1cc(CNC(=O)C#Cc2cn(Cc3ccc(S(=O)(=O)N4CCOCC4)cc3)c(=O)[nH]c2=O)ccc1F" : IC50 value = 16.2 to 36.3 nM

Lab note: "CNS(=O)(=O)c1ccc(Cn2cc(C#CC(=O)NCc3ccc(F)c(OC)c3)c(=O)[nH]c2=O)cc1" gave IC50 of 25.7 to 40.7 nM

// IC50 lookup, compound = "COc1cc(CNC(=O)C#Cc2cn(Cc3ccc(C(=O)N(C)C)cc3)c(=O)[nH]c2=O)ccc1F" , result: 70.8 to 110 nM

Notebook: "COc1cc(CNC(=O)C#Cc2cn(Cc3ccc(C(=O)N[C@@H](CO)C(=O)O)cc3)c(=O)[nH]c2=O)ccc1F" , IC50 read as 7.76 to 15.1 nM

Entry under test: "COc1cc(CNC(=O)C#Cc2cn(Cc3ccc(S(N)(=O)=O)cc3)c(=O)[nH]c2=O)ccc1F" . Its IC50 was 204 to 324 nM

Kindly note the recorded IC50 for "COc1cc(CNC(=O)C#Cc2cn(Cc3ccc(S(=O)(=O)NC(C)(C)C)cc3)c(=O)[nH]c2=O)ccc1F" , which is 12 to 20.9 nM

Entry under test: "COc1cc(CNC(=O)C#Cc2cn(Cc3ccc(S(=O)(=O)NC(C)C)cc3)c(=O)[nH]c2=O)ccc1F" . Its IC50 was 15.1 to 34.7 nM

Lab book: IC50 of "COc1cc(CNC(=O)C#Cc2cn(Cc3ccc(C(=O)NCCO)cc3)c(=O)[nH]c2=O)ccc1F" noted as 44.7 to 72.4 nM

# IC50 (compound: "COC(=O)[C@H](C)NC(=O)c1ccc(Cn2cc(C#CC(=O)NCc3ccc(F)c(OC)c3)c(=O)[nH]c2=O)cc1" ) is 102 to 195 nM

The measured IC50 associated with "COC(=O)c1ccc(Cn2cc(C#CC(=O)NCc3ccc(F)c(OC)c3)c(=O)[nH]c2=O)cc1" reads 100 to 158 nM

The compound listed as "COC(=O)[C@H]1CCCN1C(=O)c1ccc(Cn2cc(C#CC(=O)NCc3ccc(F)c(OC)c3)c(=O)[nH]c2=O)cc1" shows IC50 equal to 209 to 219 nM

Entry "COc1cc(CNC(=O)C#Cc2cn(Cc3ccc(S(=O)(=O)NC4CC4)cc3)c(=O)[nH]c2=O)ccc1F" — recorded IC50 = 10.2 to 11.7 nM

So, "COC(=O)CNS(=O)(=O)c1ccc(Cn2cc(C#CC(=O)NCc3ccc(F)c(OC)c3)c(=O)[nH]c2=O)cc1" ? Its IC50 was 15.1 to 34.7 nM

* * *

Biological target: Stromelysin-2 (Homo sapiens, UniProt P09238)
Assay: Inhibition of MMP10 (unknown origin) assessed as residual activity at 10 uM using (5-FAM/QX) FRET peptide as substrate by fluorescence assay relative to control
observed-property: Activity (%)

[[record]]
structure_as_smiles = "COC(=O)[C@H]1CCCN1C(=O)c1ccc(Cn2cc(C#CC(=O)NCc3ccc(F)c(OC)c3)c(=O)[nH]c2=O)cc1"
unit_symbol = "%"
measured_value = 17.5

[[record]]
structure_as_smiles = "COc1cc(CNC(=O)C#Cc2cn(Cc3ccc(S(=O)(=O)N4CCOCC4)cc3)c(=O)[nH]c2=O)ccc1F"
unit_symbol = "%"
measured_value = 15.7

[[record]]
structure_as_smiles = "COc1cc(CNC(=O)C#Cc2cn(Cc3ccc(S(=O)(=O)NC4CC4)cc3)c(=O)[nH]c2=O)ccc1F"
unit_symbol = "%"
measured_value = 19.6

[[record]]
structure_as_smiles = "COC(=O)CNC(=O)c1ccc(Cn2cc(C#CC(=O)NCc3ccc(F)c(OC)c3)c(=O)[nH]c2=O)cc1"
unit_symbol = "%"
measured_value = 52.8

[[record]]
structure_as_smiles = "COc1cc(CNC(=O)C#Cc2cn(Cc3ccc(C(=O)N[C@@H](C)C(=O)O)cc3)c(=O)[nH]c2=O)ccc1F"
unit_symbol = "%"
measured_value = 28.5

[[record]]
structure_as_smiles = "COc1cc(CNC(=O)C#Cc2cn(Cc3ccc(C(=O)N4CCC[C@@H]4C(=O)O)cc3)c(=O)[nH]c2=O)ccc1F"
unit_symbol = "%"
measured_value = 68.9


[1] COc1cc(CNC(=O)C#Cc2cn(Cc3ccc(C(=O)NC(C)C)cc3)c(=O)[nH]c2=O)ccc1F
[2] COc1cc(CNC(=O)C#Cc2cn(Cc3ccc(C(N)=O)cc3)c(=O)[nH]c2=O)ccc1F
[3] COc1cc(CNC(=O)C#Cc2cn(Cc3ccc(S(=O)(=O)NC(C)(C)C)cc3)c(=O)[nH]c2=O)ccc1F
[4] COC(=O)[C@H](CO)NC(=O)c1ccc(Cn2cc(C#CC(=O)NCc3ccc(F)c(OC)c3)c(=O)[nH]c2=O)cc1
Problem: Sequence the entries by Activity, beginning with the highest number. Lab note: record answer as labels in requested order.
Solution: 1, 4, 2, 3

[1] COc1cc(CNC(=O)C#Cc2cn(Cc3ccc(S(=O)(=O)N(C)C)cc3)c(=O)[nH]c2=O)ccc1F
[2] COc1cc(CNC(=O)C#Cc2cn(Cc3ccc(S(=O)(=O)NC(C)C)cc3)c(=O)[nH]c2=O)ccc1F
Problem: # argmax over Activity for candidates 1 and 2 Identify your selection by its label.
Solution: 1
(1: 47.9%, 2: 10.2%)

[P] COC(=O)CNS(=O)(=O)c1ccc(Cn2cc(C#CC(=O)NCc3ccc(F)c(OC)c3)c(=O)[nH]c2=O)cc1
[Q] COc1cc(CNC(=O)C#Cc2cn(Cc3ccc(C(=O)NC(C)(C)C)cc3)c(=O)[nH]c2=O)ccc1F
Problem: // pick larger Activity from pair: P vs Q Write down the label attached to your selection.
Solution: Q
(Q: 55.7%, P: 14.3%)

* * *

Target: Stromelysin-2 (Homo sapiens)
Experiment: Inhibition of MMP10 (unknown origin) assessed as residual activity at 10 uM using (5-FAM/QX) FRET peptide as substrate by fluorescence assay relative to control
observed-property: Activity (%)

The cases that follow already have their Activity on record.
[[record]]
structure_as_smiles = "CNC(=O)c1ccc(Cn2cc(C#CC(=O)NCc3ccc(F)c(OC)c3)c(=O)[nH]c2=O)cc1"
observed_property = "Activity"
measured_value = 15.4

[[record]]
structure_as_smiles = "COC(=O)[C@H](C)NC(=O)c1ccc(Cn2cc(C#CC(=O)NCc3ccc(F)c(OC)c3)c(=O)[nH]c2=O)cc1"
observed_property = "Activity"
measured_value = 15.5

[[record]]
structure_as_smiles = "COc1cc(CNC(=O)C#Cc2cn(Cc3ccc(S(N)(=O)=O)cc3)c(=O)[nH]c2=O)ccc1F"
observed_property = "Activity"
measured_value = 19.1


[1] COc1cc(CNC(=O)C#Cc2cn(Cc3ccc(C(=O)N[C@@H](CO)C(=O)O)cc3)c(=O)[nH]c2=O)ccc1F
[2] COC(=O)c1ccc(Cn2cc(C#CC(=O)NCc3ccc(F)c(OC)c3)c(=O)[nH]c2=O)cc1
[3] COc1cc(CNC(=O)C#Cc2cn(Cc3ccc(C(=O)N[C@H](C)C(=O)O)cc3)c(=O)[nH]c2=O)ccc1F
[4] COc1cc(CNC(=O)C#Cc2cn(Cc3ccc(C(=O)N(C)C)cc3)c(=O)[nH]c2=O)ccc1F
Problem: Sort by Activity, descending. Reply format: the labels, ordered as requested.
Solution: 3, 2, 1, 4
(3: 26.6%, 2: 18%, 1: 10.4%, 4: 7.1%)
